- Tested on: MS2 coat protein
- assay.method.text: apparent KD of MS2 coat protein; designed switch direction (-1 OFF switch, 1 ON switch): -1; higher = weaker reporter binding
- condition.notes: input ligand: FMN 200 uM
Listed here: items and their measured apparent KD of MS2 coat protein.
experimental.readout: apparent KD of MS2 coat protein (nM)

{"columns": ["sequence.input", "readout.units", "result"],
 "data": [
  ["CGAUAUAACGUAGGAUAUCUGAGAAAUAGAUGAAGAGAAGGACGACAUGAGGAUCACCCAUGUGAUCUAUCAAUAUUAUACAUG [Prohibition 96 - Jieux - Exclusion NG 1] (Eterna round: R96, puzzle: Exclusion NG 1)", "nM", 722],
  ["GUCAGCUCGUCAGGAUAUACAUGCGUGCUUCGGCACGUAUGAUAGAUCACAUGAGGAUCACCCAUGUAGAAGGGACGAGCUGAC [ENG2/4-B1] (Eterna round: R96, puzzle: Exclusion NG 2)", "nM", 13.2],
  ["AAGUAGUGUGUGAGGAUAUUGGUGGAAUGACAUAUUAAGAAGGCACAUGAGGAUCACCCAUGUGGGUUGACACG [Brourd's EX4 #19] (Eterna round: R97, puzzle: Brourd's mod of Exclusion 4)", "nM", 269],
  ["GUCAGCUCGUCAGGAUAUGAACAUGAGGAUCACCCAUGUAAGAUCAAGCUGCUUCGGCAGCAAGUUCAGAAGGGACGAGCUGAU [ENG2/10-B2] (Eterna round: R96, puzzle: Exclusion NG 2)", "nM", 167],
  ["CAGUACUGAGGAUAUACAUGAGGAUCACCCAUGUGUGUGAGUUUUGUAUGAAUGUUAUGUAGAAGGCGGUGCUG [JR_Ex3_Sub034] (Eterna round: R97, puzzle: Exclusion 3)", "nM", 285],
  ["CUGAGCUGAGGAUAUACAUGAGGAUCACCCAUGUGAAGUAGCUUGCGUACAGGCAGAUGUAGAAGGCAGUUCGG [Mod of JL 1 - Jieux - Exclusion 3] (Eterna round: R97, puzzle: Exclusion 3)", "nM", 250],
  ["GGACAUGCAGGAUAUGUAAAAUUUGACAUGAGGAUCACCCAUGUAGAUCCUGAAUUUCCUGCAGAAGGGCAUGUCC [Mat - Exclusion 5 - Eli Mod - D18] (Eterna round: R97, puzzle: Exclusion 5)", "nM", 396],
  ["GCAGCGUAUGUAGGAUAUCGGUCAGUUUCUGAUCGAGAAGGACAUGAGGAUCACCCAUGUAAAUUACCGUCUUUGACGGGCUGC [JL ENG1 3.68] (Eterna round: R96, puzzle: Exclusion NG 1)", "nM", 20.5],
  ["GCGGAGUGAGGAUAUAGAACUUAAGGUACCAAUUAGGUACCCUAGAAGGCACAUGAGGAUCACCCAUGUACCGC [Eli x4 4.01] (Eterna round: R97, puzzle: Exclusion 4)", "nM", 26.5],
  ["UAACAUGUCUGAGGAUAUCUGCACGUGUAGUGCAGAGAAGGCAGAACAUGAGGAUCACCCAUGUAGAUCAUUAAUUAAUUAAUU [ENG1/7-B3] (Eterna round: R96, puzzle: Exclusion NG 1)", "nM", 765],
  ["UUUUUAAAUGAAGGAUAUACUUAACAUGAGGAUCACCCAUGUGGUGUUGUGAGUGAGUGAGUUUAGUAGAAGGUCAAUGAUUUU [JMF's solution 65] (Eterna round: R96, puzzle: Exclusion NG 2)", "nM", 1250],
  ["CUAGGGCACAAUUAAGCGCCCUAACAUGAGGAUCACCCAUGUCAGGAUAUGUAGGCAAAGACCCUACAGAAGGGACAUGUCCUA [Artileza] (Eterna round: R96, puzzle: Exclusion NG 3)", "nM", 393],
  ["UUGUACCGGUGAGGAUAUUUUUAAUAGAGCUUUAUGAUAUACAUGAGGAUCACCCAUGUUACGUUGAAGAAGGCAUCGGAUUAU [JL JR Sub091 mod 5] (Eterna round: R96, puzzle: Exclusion NG 2)", "nM", 19.3],
  ["UUCUUUAUACGAGGAUAUCAUACAUGAGGAUCACCCAUGUGGCUGGGUCUGUUUUUAUAUAAUAUUGAGAAGGCGUUUUGCUAU [JR_ExcNG2_Sub072] (Eterna round: R96, puzzle: Exclusion NG 2)", "nM", 223],
  ["GUCCAGGCAGGAUAUGUACAGGAGCACUUGAGGAUCACCCAAGUCCUCGUGUUGUUGUCAGCAGAAGGGCCCAUUA [Dizaquin] (Eterna round: R97, puzzle: Exclusion 5)", "nM", 529],
  ["CAGUACUGAGGAUAUACAUGAGGAUCACCCAUGUGUCUUCUAUUAGGAAACUAGUUAUGUAGAAGGCAGUACUG [Omei Ex3 Mod of Eli 4.27 v8] (Eterna round: R97, puzzle: Exclusion 3)", "nM", 221],
  ["UUUUUAUAUGAAGGAUAUACUUAACAUGAGGAUCACCCAUGUGGUGUUGUGAGUGAGUGAGUUUAGUAGAAGGUCAAUGAUUCU [JMF's solution 61] (Eterna round: R96, puzzle: Exclusion NG 2)", "nM", 864],
  ["CGUUCGCGAGGAUAUGCAUUCGAGUCCACUACGUGUCUGGGACUUGAGGAUCACCCAAGUAGAAGGCGCCUCAC [salish99_ex2_r4_648] (Eterna round: R97, puzzle: Exclusion 2)", "nM", 83.9]
]}
